Assay: Cmax in ICR mouse at 10 mg/kg, po measured upto 24 hrs by LC-MS/MS analysis
Format: ADME, organism-based
Set-up: time < 24 hrs, dose 10 mg/kg, route po
Conditions: in vivo
Endpoint: Cmax (ng/mL)
One number for each entry, in ng/mL.

Request: Please supply the value of reported Cmax for the item Cc1nc2c(F)cc(-c3nc(Nc4nccc(Sc5cnc(N6CCC7(CC6)CO[C@@H](C)[C@H]7N)cn5)c4Cl)ncc3F)cc2n1C(C)C
Result: 634

----------
Assay: Cmax in ICR mouse at 1 mg/kg, iv measured upto 24 hrs by LC-MS/MS analysis
Format: ADME, organism-based
Set-up: time < 24 hrs, dose 1 mg/kg, route iv
Details: in vivo
Endpoint: Cmax (ng/mL)
Give bare numbers, in ng/mL.

Request: Please supply the value of reported Cmax for the item Cc1nc2c(F)cc(-c3nc(Nc4nccc(Sc5cnc(N6CCC7(CC6)CO[C@@H](C)[C@H]7N)cn5)c4Cl)ncc3F)cc2n1C(C)C
Result: 383

----------
Target: Cyclin-dependent kinase 13/Cyclin-K (Homo sapiens)
Sequence (Q14004 whole entry, the tested form may be a part): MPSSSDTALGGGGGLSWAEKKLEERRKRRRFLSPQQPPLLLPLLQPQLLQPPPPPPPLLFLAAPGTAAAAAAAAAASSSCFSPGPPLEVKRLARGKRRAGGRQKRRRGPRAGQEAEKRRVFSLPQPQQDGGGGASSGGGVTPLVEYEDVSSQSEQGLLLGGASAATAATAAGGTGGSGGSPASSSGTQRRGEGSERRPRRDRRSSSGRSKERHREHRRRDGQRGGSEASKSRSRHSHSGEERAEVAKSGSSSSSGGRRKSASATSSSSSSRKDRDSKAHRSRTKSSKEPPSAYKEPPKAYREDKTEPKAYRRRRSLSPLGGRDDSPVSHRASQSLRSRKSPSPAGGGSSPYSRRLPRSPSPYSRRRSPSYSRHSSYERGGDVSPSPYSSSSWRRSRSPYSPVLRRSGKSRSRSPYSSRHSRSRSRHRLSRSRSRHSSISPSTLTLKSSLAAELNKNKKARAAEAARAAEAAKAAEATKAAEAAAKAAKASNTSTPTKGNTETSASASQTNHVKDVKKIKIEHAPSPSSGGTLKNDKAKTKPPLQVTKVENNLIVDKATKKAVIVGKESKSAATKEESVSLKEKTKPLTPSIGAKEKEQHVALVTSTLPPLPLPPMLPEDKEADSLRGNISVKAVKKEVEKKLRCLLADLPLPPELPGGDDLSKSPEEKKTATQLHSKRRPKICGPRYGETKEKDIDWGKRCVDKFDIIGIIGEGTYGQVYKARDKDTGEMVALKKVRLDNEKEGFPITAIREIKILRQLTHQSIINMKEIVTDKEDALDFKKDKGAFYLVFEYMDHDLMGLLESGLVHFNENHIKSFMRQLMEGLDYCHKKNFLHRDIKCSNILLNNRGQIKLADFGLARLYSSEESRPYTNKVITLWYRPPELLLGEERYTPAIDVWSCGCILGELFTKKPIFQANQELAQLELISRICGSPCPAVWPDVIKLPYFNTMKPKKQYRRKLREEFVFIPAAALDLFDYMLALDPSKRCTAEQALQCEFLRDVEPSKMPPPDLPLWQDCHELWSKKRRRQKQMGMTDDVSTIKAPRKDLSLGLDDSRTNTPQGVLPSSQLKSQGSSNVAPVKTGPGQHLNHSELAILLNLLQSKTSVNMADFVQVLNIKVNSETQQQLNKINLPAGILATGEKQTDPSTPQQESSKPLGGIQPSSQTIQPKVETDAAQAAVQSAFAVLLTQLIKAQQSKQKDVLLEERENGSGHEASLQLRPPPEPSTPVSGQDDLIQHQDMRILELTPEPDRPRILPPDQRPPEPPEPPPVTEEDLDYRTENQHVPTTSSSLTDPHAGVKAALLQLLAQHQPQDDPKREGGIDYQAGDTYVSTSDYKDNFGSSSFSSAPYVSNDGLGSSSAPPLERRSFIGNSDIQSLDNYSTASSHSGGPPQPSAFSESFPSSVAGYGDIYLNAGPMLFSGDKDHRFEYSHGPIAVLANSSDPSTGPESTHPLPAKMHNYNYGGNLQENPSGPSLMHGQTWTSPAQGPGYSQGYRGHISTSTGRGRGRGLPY
Sequence (O75909 whole entry, further chain, the tested form may be a part): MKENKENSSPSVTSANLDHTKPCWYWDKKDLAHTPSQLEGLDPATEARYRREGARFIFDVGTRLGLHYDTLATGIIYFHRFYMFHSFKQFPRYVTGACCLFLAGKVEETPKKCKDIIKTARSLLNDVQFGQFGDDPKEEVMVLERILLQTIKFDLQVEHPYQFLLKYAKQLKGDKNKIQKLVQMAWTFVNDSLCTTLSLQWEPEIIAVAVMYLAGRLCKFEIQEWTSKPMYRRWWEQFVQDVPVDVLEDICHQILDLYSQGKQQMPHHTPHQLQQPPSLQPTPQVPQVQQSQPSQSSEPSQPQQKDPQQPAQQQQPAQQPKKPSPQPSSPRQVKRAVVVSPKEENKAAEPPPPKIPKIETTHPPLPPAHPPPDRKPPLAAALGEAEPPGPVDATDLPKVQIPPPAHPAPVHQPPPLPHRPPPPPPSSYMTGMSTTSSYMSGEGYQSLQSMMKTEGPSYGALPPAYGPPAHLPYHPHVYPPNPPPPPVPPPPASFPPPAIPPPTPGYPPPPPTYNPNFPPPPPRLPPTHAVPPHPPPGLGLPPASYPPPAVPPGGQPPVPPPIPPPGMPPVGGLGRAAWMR
Assay: Inhibition of recombinant N-terminal GST/His6-fusion tagged human CDK13/Cyclin K expressed in Sf9 insect cells incubated for 20 mins followed by [33P]gamma-ATP addition and measured after 2 hrs by radiometric HotSpot Kinase assay
Endpoint: IC50

Request: Please supply the value of reported IC50 for the item Cc1nc2c(F)cc(-c3nc(Nc4nccc(Sc5cnc(N6CCC7(CC6)CO[C@@H](C)[C@H]7N)cn5)c4Cl)ncc3F)cc2n1C(C)C
Result: > 1 µM

----------
Target: Tyrosine-protein phosphatase non-receptor type 11 (Homo sapiens, UniProt Q06124)
Sequence (Q06124 whole entry): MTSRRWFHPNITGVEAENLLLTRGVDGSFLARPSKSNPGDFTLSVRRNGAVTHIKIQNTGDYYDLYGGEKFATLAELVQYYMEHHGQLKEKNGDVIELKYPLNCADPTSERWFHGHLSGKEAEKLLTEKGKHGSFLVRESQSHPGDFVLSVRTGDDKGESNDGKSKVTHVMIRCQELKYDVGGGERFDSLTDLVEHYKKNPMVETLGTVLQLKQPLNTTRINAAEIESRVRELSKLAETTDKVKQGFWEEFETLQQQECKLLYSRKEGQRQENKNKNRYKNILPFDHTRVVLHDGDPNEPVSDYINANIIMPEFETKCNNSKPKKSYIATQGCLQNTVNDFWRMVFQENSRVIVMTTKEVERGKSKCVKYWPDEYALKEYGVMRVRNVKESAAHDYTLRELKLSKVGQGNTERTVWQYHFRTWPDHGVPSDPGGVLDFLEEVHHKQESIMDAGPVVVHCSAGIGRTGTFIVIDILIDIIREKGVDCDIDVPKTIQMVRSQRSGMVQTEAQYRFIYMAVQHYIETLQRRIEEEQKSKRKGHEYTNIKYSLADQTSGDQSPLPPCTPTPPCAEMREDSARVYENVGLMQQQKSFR
Assay: Inhibition of SHP2 (unknown origin) using DiFMUP as substrate incubated for 60 mins followed by substrate addition for 30 mins by microplate reader method
Endpoint: pIC50
Numbers only, as −log10 of the molar value.

Field: example entries. Status: answers known.
Request: Please supply the value of reported pIC50 for the item Cc1nc2c(F)cc(-c3nc(Nc4ccc(Cl)c(Sc5cnc(N6CCC7(CC6)CO[C@@H](C)[C@H]7N)cn5)n4)ncc3F)cc2n1C(C)C
Result: 6.21

Request: Please supply the value of reported pIC50 for the item Cc1nc2c(F)cc(-c3nc(Nc4cc(Sc5cnc(N6CCC7(CC6)CO[C@@H](C)[C@H]7N)cn5)ccn4)ncc3F)cc2n1C(C)C
Result: 7.33

Then this compound:
Request: Please supply the value of reported pIC50 for the item Cc1nc2c(F)cc(-c3nc(Nc4cnc(Sc5cnc(N6CCC7(CC6)CO[C@@H](C)[C@H]7N)cn5)c(Cl)c4)ncc3F)cc2n1C(C)C
Result: 6.69

----------
Target: CDK3/Cyclin E (Homo sapiens, UniProt Q00526)
Sequence (P24864 whole entry, the tested form may be a part): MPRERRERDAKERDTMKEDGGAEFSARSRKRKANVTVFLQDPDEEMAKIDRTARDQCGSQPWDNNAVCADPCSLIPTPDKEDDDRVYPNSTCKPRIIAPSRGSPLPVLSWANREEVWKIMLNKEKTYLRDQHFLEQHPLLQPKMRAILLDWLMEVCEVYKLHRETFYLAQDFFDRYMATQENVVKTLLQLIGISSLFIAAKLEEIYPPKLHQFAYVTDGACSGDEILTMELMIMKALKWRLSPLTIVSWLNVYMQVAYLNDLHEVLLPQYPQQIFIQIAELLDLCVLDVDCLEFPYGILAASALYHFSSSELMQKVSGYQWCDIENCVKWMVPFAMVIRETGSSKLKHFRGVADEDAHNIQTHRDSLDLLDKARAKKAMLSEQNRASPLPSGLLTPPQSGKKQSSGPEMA
Sequence (Q00526 whole entry, the tested form may be a part): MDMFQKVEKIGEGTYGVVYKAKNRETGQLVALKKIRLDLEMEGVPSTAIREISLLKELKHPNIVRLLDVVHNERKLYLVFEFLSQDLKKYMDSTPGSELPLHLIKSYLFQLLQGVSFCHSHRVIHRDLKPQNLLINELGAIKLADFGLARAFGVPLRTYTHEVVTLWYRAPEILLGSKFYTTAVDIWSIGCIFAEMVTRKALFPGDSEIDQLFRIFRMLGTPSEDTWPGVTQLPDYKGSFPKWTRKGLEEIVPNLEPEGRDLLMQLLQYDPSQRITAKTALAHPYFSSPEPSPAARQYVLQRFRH
Experiment: Inhibition of recombinant N-terminal GST/His6-fusion tagged human CDK3/Cyclin E expressed in Sf9 insect cells incubated for 20 mins followed by [33P]gamma-ATP addition and measured after 2 hrs by radiometric HotSpot Kinase assay
Endpoint: IC50

Request: Return reported IC50 for target or system CDK3/Cyclin E (Homo sapiens, UniProt Q00526), item Cc1nc2c(F)cc(-c3nc(Nc4nccc(Sc5cnc(N6CCC7(CC6)CO[C@@H](C)[C@H]7N)cn5)c4Cl)ncc3F)cc2n1C(C)C .
Result: > 1 µM

----------
Biological target: Cyclin-dependent kinase 5/CDK5 activator 1 (Homo sapiens)
Sequence (Q00535 whole entry, the tested form may be a part): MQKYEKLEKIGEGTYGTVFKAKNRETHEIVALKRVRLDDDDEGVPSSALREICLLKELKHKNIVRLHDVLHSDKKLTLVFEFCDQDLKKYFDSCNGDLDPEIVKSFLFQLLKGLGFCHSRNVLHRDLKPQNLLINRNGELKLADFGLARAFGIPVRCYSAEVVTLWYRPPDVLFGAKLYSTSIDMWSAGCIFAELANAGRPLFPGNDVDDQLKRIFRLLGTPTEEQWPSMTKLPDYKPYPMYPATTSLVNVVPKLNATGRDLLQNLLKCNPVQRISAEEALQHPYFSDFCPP
Sequence (Q15078 whole entry, further chain, the tested form may be a part): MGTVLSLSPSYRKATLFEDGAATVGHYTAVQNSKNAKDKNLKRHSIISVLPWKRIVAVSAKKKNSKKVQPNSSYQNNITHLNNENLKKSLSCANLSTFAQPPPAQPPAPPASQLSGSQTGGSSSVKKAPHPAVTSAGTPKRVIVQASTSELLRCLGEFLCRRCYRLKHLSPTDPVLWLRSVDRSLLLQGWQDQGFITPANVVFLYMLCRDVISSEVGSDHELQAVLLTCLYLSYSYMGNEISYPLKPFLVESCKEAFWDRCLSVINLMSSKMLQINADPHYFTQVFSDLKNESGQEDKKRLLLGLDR
Experiment: Inhibition of recombinant full length N-terminal GST/His6-fusion tagged human CDK5/P25 expressed in Sf9 insect cells incubated for 20 mins followed by [33P]gamma-ATP addition and measured after 2 hrs by radiometric HotSpot Kinase assay
Endpoint: IC50

Request: Please supply the value of reported IC50 for the item Cc1nc2c(F)cc(-c3nc(Nc4nccc(Sc5cnc(N6CCC7(CC6)CO[C@@H](C)[C@H]7N)cn5)c4Cl)ncc3F)cc2n1C(C)C
Result: 540 nM

Data provenance: ChEMBL document CHEMBL5154884
